target: TNKS1 (Homo sapiens); construct: GST-tagged Tnks-1 (1023-1327 aa, prepared in-house); made in house; assay: TNKS1 activity ELISA (autoparsylation assay); assay type: biochemical; conditions: GST-tagged Tnks-1 (1023-1327 aa)
Sequence (O95271 1023-1327): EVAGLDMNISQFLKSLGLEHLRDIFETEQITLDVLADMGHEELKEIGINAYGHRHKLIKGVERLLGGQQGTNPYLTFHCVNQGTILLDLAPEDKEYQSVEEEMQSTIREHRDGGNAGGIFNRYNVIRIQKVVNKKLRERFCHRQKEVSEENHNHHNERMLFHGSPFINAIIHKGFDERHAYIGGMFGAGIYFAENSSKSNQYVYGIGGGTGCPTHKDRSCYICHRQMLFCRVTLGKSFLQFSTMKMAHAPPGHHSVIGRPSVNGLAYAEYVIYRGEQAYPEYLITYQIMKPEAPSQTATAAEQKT

structure notation: COc1ccc(C(=O)C2CCN(C(=O)CCCc3cn4cccc4c(=O)[nH]3)CC2)cc1
assayed system: TNKS1 (Homo sapiens)
readout unit: nM
IC50: 0.24
--
structure notation: Cc1scc2c(=O)[nH]c(CCCC(=O)N3CCC(c4cnc(N)c(-c5ncccn5)c4)CC3)nc12
assayed system: TNKS1 (Homo sapiens)
readout unit: nM
IC50: 0.37
--
structure notation: Cn1ncc2c(=O)[nH]c(CCCC(=O)N3CCC(C(=O)c4ccc(F)cc4)CC3)nc21
assayed system: TNKS1 (Homo sapiens)
readout unit: nM
IC50: 0.45
--
structure notation: COc1ccc(C(=O)C2CCN(C(=O)CCCc3nc4c(c(=O)[nH]3)COCC4)CC2)cn1
assayed system: TNKS1 (Homo sapiens)
readout unit: nM
IC50: 7.4
--
structure notation: Cc1scc2c(=O)[nH]c(CCCC(=O)N3CCC(c4nnc(-c5ccccc5)o4)CC3)nc12
assayed system: TNKS1 (Homo sapiens)
readout unit: nM
IC50: 8.2
--
structure notation: Cc1nc(CCCC(=O)N2CCC(C(=O)c3cnn(C)c3)CC2)[nH]c(=O)c1C
assayed system: TNKS1 (Homo sapiens)
readout unit: nM
IC50: 24
--
structure notation: Cc1scc2c(=O)[nH]c(CCCC(=O)N3CCC(Oc4ccc(C#N)cc4)CC3)nc12
assayed system: TNKS1 (Homo sapiens)
readout unit: nM
IC50: 110
--
structure notation: N#Cc1cc(C2CCN(C(=O)CCCc3nn4cccc4c(=O)[nH]3)CC2)cnc1N
assayed system: TNKS1 (Homo sapiens)
readout unit: nM
IC50: 2.2
--
structure notation: O=C(c1ccc(Cl)cc1)C1CCN(C(=O)CCCc2nn3cccc3c(=O)[nH]2)CC1
assayed system: TNKS1 (Homo sapiens)
readout unit: nM
IC50: 0.66
--
structure notation: CCc1cc(=O)[nH]c(CCCC(=O)N2CCC(C(=O)c3ccc(OC)nc3)CC2)n1
assayed system: TNKS1 (Homo sapiens)
readout unit: nM
IC50: 31
--
structure notation: Cn1ncc2c(=O)[nH]c(CCCC(=O)N3CCC(C(=O)c4ccc(F)c(F)c4)CC3)nc21
assayed system: TNKS1 (Homo sapiens)
readout unit: nM
IC50: 0.63
--
structure notation: Cc1ccc(C(=O)C2CCN(C(=O)CCCc3nn4cccc4c(=O)[nH]3)CC2)cc1
assayed system: TNKS1 (Homo sapiens)
readout unit: nM
IC50: 0.57
--
structure notation: COc1ccc(C(=O)C2CCN(C(=O)CCCc3nc4c(c(=O)[nH]3)CCCC4)CC2)cc1
assayed system: TNKS1 (Homo sapiens)
readout unit: nM
IC50: 0.66
--
structure notation: COc1ccc(C(=O)C2CCN(C(=O)CCCc3nc(C)c(C)c(=O)[nH]3)CC2)cn1
assayed system: TNKS1 (Homo sapiens)
readout unit: nM
IC50: 11
--
structure notation: Nc1ncc(C2CCN(C(=O)CCCc3nn4cc(F)cc4c(=O)[nH]3)CC2)cc1-c1ncccn1
assayed system: TNKS1 (Homo sapiens)
readout unit: nM
IC50: 0.61
--
structure notation: CCn1cc(C(=O)C2CCN(C(=O)CCCc3nc4c(c(=O)[nH]3)COCC4)CC2)cn1
assayed system: TNKS1 (Homo sapiens)
readout unit: nM
IC50: 14
